Entries and their measured growth follow.
Test system: UACC-257 melanoma
assayRemarks: NCI-60 one-dose screen, 48 h (100 = growth as untreated, 0 = no growth, -100 = all killed)
reportedConditions: 10 µM
The panel holds about 83,000 compounds, 20% with a hit somewhere; the sample as a whole holds those more often.
Give the number; % is assumed, so skip it.

[[record]]
compound = "Cc1ccc(Cl)cc1NC(=O)N(C)CCO"
measuredvalue = 110

[[record]]
compound = "CCS(=O)(=O)CCCl"
measuredvalue = 94.5

[[record]]
compound = "c1ccc2c(N3CCCCC3)ncnc2c1"
measuredvalue = 90.2


Q) Suppose we examine the compound CCOC(=O)C(C#N)Cc1ccccc1 (stereo unspecified) ; what growth value has been reported?
A) 117

Q) Tell me the measured growth of "O/N=C/c1ccc(O)cc1O" , please.
A) 87.7

Q) Recorded growth for "COC(=O)c1[nH]c(=O)c(C#N)c(C(=O)OC)c1C(=O)c1ccccc1" , please?
A) 86.1

Data origin, for the record: PubChem BioAssay (NCI)
